Attribution: ChEMBL document CHEMBL3272093

System: Salmonella enterica subsp. enterica serovar Typhimurium
Assay Remarks: Inhibition of Salmonella typhimurium DD-carboxypeptidase using UDP-N-acetylmuramyl-L-alanyl-meso-diaminopimeloyl-D-alanyl-D-alanine as substrate at 10 to 100 ug/ml
Calls of active or inactive are those of the source. The calls are words filed in the database; no cut-off is given here.
Assay Readout: inhibition

Completed entries (count: 5):
O=C(CI)NCCCC(=O)OCc1ccccc1 :: inactive
C[C@@H](NC(=O)CI)C(=O)N[C@H](C)C(=O)OCc1ccccc1 :: inactive
O=C(O)CCCCNC(=O)[C@H](CCCCN1C(=O)c2ccccc2C1=O)NC(=O)CI :: inactive
O=C(CI)NCCCCC(=O)OCc1ccccc1 :: inactive
C[C@@H](NC(=O)[C@H](CCCCN1C(=O)c2ccccc2C1=O)NC(=O)CI)C(=O)N[C@H](C)C(=O)OC(C)(C)C :: inactive

Missing value: inhibition, Salmonella enterica subsp. enterica serovar Typhimurium, entry C[C@@H](NC(=O)[C@H](CCCCNC(=O)CI)NC(=O)OC(C)(C)C)C(=O)N[C@H](C)C(=O)OC(C)(C)C . Fill in?
inactive

C[C@@H](NC(=O)CI)C(=O)N[C@H](C)C(=O)OC(C)(C)C ?
inactive

C[C@@H](NC(=O)[C@H](CCCCNC(=O)OC(C)(C)C)NC(=O)CBr)C(=O)OC(C)(C)C ?
inactive

C[C@@H](NC(=O)[C@H](CCCCN)NC(=O)CI)C(=O)N[C@H](C)C(=O)OC(C)(C)C.Cc1ccc(S(=O)(=O)O)cc1 ?
inactive

O=C(CI)NCC(=O)OCc1ccccc1 ?
inactive

C[C@@H](NC(=O)[C@H](CCCCN)NC(=O)CI)C(=O)O.O=C(O)C(F)(F)F ?
inactive

C[C@@H](NC(=O)[C@H](CCCCNC(=O)OC(C)(C)C)NC(=O)CBr)C(=O)N[C@H](C)C(=O)OC(C)(C)C ?
inactive

O=C(CI)NCC(=O)NCC(=O)OCc1ccccc1 ?
inactive
